Consider the following molecules; for each one, report its melting point.

Query: Report measured melting point; entry is `COc1ncccc1Cc1cc2cccc(-c3cccc(C(=O)NCCO)c3)c2s1`
Response: 121 to 122 °C

Query: Report measured melting point; entry is `C=CC(=O)NCN1CCCC1=O`
Response: 73 to 74 °C

Query: Report measured melting point; entry is `COc1ccc(C(=O)c2cc(-c3cccnc3)c(N3CCOCC3)s2)cc1`
Response: 149 °C

Query: Report measured melting point; entry is `CNC(=O)[C@@H]1C[C@@H](OCC2CC2)CN1S(=O)(=O)c1ccc(Cl)c(COc2cccc3c(-n4ccnc4)cc(C)nc23)c1Cl`
Response: 98 °C

Query: Report measured melting point; entry is `COc1cc([N+](=O)[O-])ccc1S(=O)(=O)n1c(=O)n(C2CCCCC2)c2cc(Cl)ccc21`
Response: 185 °C

Please report melting point for every entry that follows.
1. Cc1c(Cc2ccc(C(C)C)cc2)c2c(c(C)c1NC(=O)CC(C)(C)C)CC(C)(CO)O2 (stereo not given)
2. O=C(Nc1ccncc1)c1ccc(-c2ccc3nnn(Cc4ccc5ncccc5c4)c3n2)cc1F
3. CCOC(=O)C(=O)Nc1nc(CN2CCN(C(c3ccccc3)c3ccccc3)CC2)cs1
4. CCOC(=O)[C@H]1O[C@@H]1C(=O)N[C@@H](CC(C)C)C(=O)c1ccccc1
5. CCC(C)NC(Nc1cc(Cl)cc(Cl)c1)=C(C#N)S(=O)(=O)c1ccc(Cl)cc1 (stereo not given)

Response:
1: 186 to 187 °C; 2: 217 to 219 °C; 3: 125 to 128 °C; 4: 118 to 119 °C; 5: 150 to 152 °C

Please report melting point for every entry that follows.
1. COc1cccc([C@H]2O[C@H](CC(=O)Nc3nc(C)c(C(=O)OC(C)(C)C)s3)C(=O)N(CC(C)(C)COC(C)=O)c3ccc(Cl)cc32)c1OC
2. COc1ccccc1N1CCN(CCN(C(=O)C2CCCCC2)c2ccccc2[N+](=O)[O-])CC1
3. C=C(CC(N)=O)C(=O)O
4. Cc1cc(Oc2ccccc2C(F)(F)F)nn1C(=O)Nc1ccccc1
5. Nc1nc(F)cc(Oc2ccc(Cl)cc2)n1

Response:
1. 211 to 213 °C
2. 119 to 121 °C
3. 153 to 154 °C
4. 87 to 89 °C
5. 223 to 226 °C

* * *

recordedMetric: melting point

Query: Report measured melting point; entry is `O=C(CCCCN1CCCCC1)c1ccc2c(c1)Sc1cc(C(=O)CCCCN3CCCCC3)ccc1O2`
Response: 128 to 130 °C

Query: Report measured melting point; entry is `CCN(CC)C(=O)Oc1c2c(ccc3cc(F)ccc32)nn1-c1ccc(F)cc1`
Response: 159 to 160 °C

Please report melting point for every entry that follows.
1. O=C(CCNC(=O)[C@H](Cc1ccc(-c2ccccc2)cc1)NCP(=O)(Oc1ccccc1)Oc1ccccc1)OCc1ccccc1
2. CCN(CCCCCN(CCCCCN(CC)S(=O)(=O)c1c(C)cc(C)cc1C)S(=O)(=O)c1c(C)cc(C)cc1C)S(=O)(=O)c1c(C)cc(C)cc1C

Response:
1: 83 to 84 °C; 2: 60 to 62 °C

* * *

Consider the following molecules; for each one, report its melting point.

Query: Report measured melting point; entry is `CN(C(=O)c1ccc2nsnc2c1)C1CCOCC1`
Response: 106 to 108 °C

Query: Report measured melting point; entry is O=S(=O)(CC1CCCCN1S(=O)(=O)c1ccccc1)c1ccc(Cl)cc1 (stereo unspecified)
Response: 129 to 131 °C

Query: Report measured melting point; entry is `C[C@]1(F)C(=O)O[C@H](COC(=O)c2ccc(Cl)cc2)[C@H]1OC(=O)c1ccc(Cl)cc1`
Response: 138 to 141 °C

Query: Report measured melting point; entry is `CCOC(C#CCN1CCC(NC(=O)c2ccccc2)CC1)OCC`
Response: 130 °C

Query: Report measured melting point; entry is Cc1cc2c(cc1C)C(=O)C(CC(=O)O)CC2 (stereo unspecified)
Response: 193 to 194 °C

Query: Report measured melting point; entry is `COc1cccc(CC(=O)O)c1OCc1cc(OCc2ccc3ccccc3n2)nn1C(C)C`
Response: 163 to 164 °C

Query: Report measured melting point; entry is `COc1ccc(C(=O)/C(Cc2cc(OC)c(OC)c(OC)c2)=C(/C(=O)O)c2ccc3c(c2)OCO3)cc1`
Response: 192 to 193 °C

Query: Report measured melting point; entry is COc1ccc2c(c1)C(C(=O)O)CCC2 (stereo unspecified)
Response: 126 to 127 °C

Please report melting point for every entry that follows.
1. N[C@@H](Cc1cccc(C(F)(F)F)c1)[C@H](O)c1ccc(F)cc1 (racemic)
2. CC1CCN(C(=O)NCCc2ccc(S(=O)(=O)NC(=O)NC3CCC(C)C3)cc2)C(=O)C1 (stereo unspecified)

Response:
1: 76 to 77 °C; 2: 145 to 147 °C

Query: Report measured melting point; entry is `FC(F)Sc1ccc(-c2ccccc2)cc1`
Response: 56 to 57 °C
